Tested on: Staphylococcus aureus
Assay: In-vitro antibacterial test, agar dilution MIC
Format: cell-based
Details: Staphylococcus aureus, read-out: In-vitro MIC
Measure: MIC (µg/mL)
Report the figure in µg/mL without appending any unit label.

# example entries with known answers
{"columns": ["Molecule", "MIC (µg/mL)"],
 "data": [
  ["CS(=O)(=O)O.C[C@@H]1Sc2c(C(=O)O)c(=O)c3cc(F)c(N4CCNCC4)cc3n21", 0.25],
  ["CC(O)C(=O)O.C[C@@H]1Sc2c(C(=O)O)c(=O)c3cc(F)c(N4CCNCC4)cc3n21", 0.125],
  ["CC(O)C(=O)O.CC1Sc2c(C(=O)O)c(=O)c3cc(F)c(N4CCNCC4)cc3n21 (racemic) [Ulifloxaci lactate (±), reference compound]", 0.25]
]}

Attention now shifts to the item below.
Need MIC of CC(O)C(=O)O.C[C@H]1Sc2c(C(=O)O)c(=O)c3cc(F)c(N4CCNCC4)cc3n21 , thanks. 1

* * *

Assay: Solubility test: maximum solubility in water
Type: physicochemical
Settings: thermodynamic from solid; maximum solubility in water, ambient temperature (25° C.), average of two tests, preliminary; read-out: Water Solubility
Measure: solubility

{"columns": ["Compound", "Measure", "Assay value"],
 "data": [
  ["CC(O)C(=O)O.CC1Sc2c(C(=O)O)c(=O)c3cc(F)c(N4CCNCC4)cc3n21 (racemic) [Ulifloxaci lactate (±), reference compound]", "solubility", "106 mg/mL"],
  ["CC(O)C(=O)O.C[C@H]1Sc2c(C(=O)O)c(=O)c3cc(F)c(N4CCNCC4)cc3n21 [Compound 13]", "solubility", "116 mg/mL"]
]}

Attention now shifts to the item below.
Need solubility of CC(O)C(=O)O.C[C@@H]1Sc2c(C(=O)O)c(=O)c3cc(F)c(N4CCNCC4)cc3n21 [Compound 4] , thanks. 70 mg/mL
